Conditions: human, serum
Reported Hepatotoxicity (acute) values are given for each entry in this list.
Give a plain numeric answer without units written out.

Example molecules with recorded Hepatotoxicity (acute):
Given the molecule CCCC[C@@H]1CC(=O)[C@]2(O)O[C@@H]3[C@@H](NC)[C@@H](O)[C@@H](NC)[C@H](O)[C@H]3O[C@@H]2O1 , what is its reported Hepatotoxicity (acute)?
0

What Hepatotoxicity (acute) value was documented for this molecule, O=C1CC[C@@]2(O)[C@H]3Cc4ccc(O)c5c4[C@@]2(CCN3CC2CC2)[C@H]1O5 [NALTREXONE] ?
3

Form field: reported Hepatotoxicity (acute) of CC(=O)Nc1ccc(OC(=O)c2ccccc2OC(C)=O)cc1 [BENORILATE]
2

---
Name the reported Hepatotoxicity (acute) value associated with the molecule NCCNC(=O)c1ccc(Cl)cn1 [LAZABEMIDE]
0

Param item = Cc1nnc(SCC2=C(C(=O)O)N3C(=O)[C@@H](NC(=O)Cn4cnnn4)[C@H]3SC2)s1 ; retrieve measured Hepatotoxicity (acute).
2

Look up Hepatotoxicity (acute) for this molecule: OCCN1CCN(CC/C=C2/c3ccccc3Sc3ccc(Cl)cc32)CC1
0

---

Conditions: human
MEASURED METRIC: Hepatotoxicity (severe hepatitis)
No unit in the answer, please; the number alone is enough.

Consider the compound shown here: C[C@H]1O[C@H](O[C@H]2[C@H](O)[C@@H](O)[C@@H](O[C@H]3[C@H](O)[C@@H](O)C(O)O[C@@H]3CO)O[C@@H]2CO)[C@H](O)[C@@H](O)[C@@H]1N[C@H]1C=C(CO)[C@@H](O)[C@H](O)[C@H]1O (some centres not stated) [ACARBOSE] What is its recorded Hepatotoxicity (severe hepatitis)?
0

Which Hepatotoxicity (severe hepatitis) is reported for this compound? CO/N=C1\CN(c2nc3c(cc2F)c(=O)c(C(=O)O)cn3C2CC2)CC1CN (configuration not stated) [GEMIFLOXACIN]
0

// returns reported Hepatotoxicity (severe hepatitis) for input CN(c1nccc(=O)[nH]1)C1CCN(c2nc3ccccc3n2Cc2ccc(F)cc2)CC1 [MIZOLASTINE]
0

Data request, read-out Hepatotoxicity (severe hepatitis), for C/N=C(/Cc1ccc2ccccc2c1)NC [NAPACTADINE]
0

Could you share which Hepatotoxicity (severe hepatitis) value was measured for CN1CCN(C2=Nc3cc(Cl)ccc3Nc3ccccc32)CC1 [CLOZAPINE] ?
1

Bench note: what Hepatotoxicity (severe hepatitis) did c1ccc(C2(c3ccccc3)CC2C2=NCCN2)cc1 (configuration not stated) [CIFENLINE] show?
0

Suppose we examine the compound C=CC[C@@H]1/C=C(\C)C[C@H](C)C[C@H](OC)[C@H]2O[C@@](O)(C(=O)C(=O)N3CCCC[C@H]3C(=O)O[C@H](/C(C)=C/[C@@H]3CC[C@@H](O)[C@H](OC)C3)[C@H](C)[C@@H](O)CC1=O)[C@H](C)C[C@@H]2OC [TACROLIMUS ANHYDROUS] ; what Hepatotoxicity (severe hepatitis) value has been reported?
0

Requested read-out: Hepatotoxicity (severe hepatitis). Entry: CC1(C)S[C@@H]2[C@H](NC(=O)C(c3ccccc3)S(=O)(=O)O)C(=O)N2[C@H]1C(=O)O (some centres not stated) [SULBENICILLIN]
0

Fill in: Hepatotoxicity (severe hepatitis) of C[C@]12CC[C@@H]3c4ccc(O)cc4CC[C@H]3[C@@H]1CC[C@@H]2O [ESTRADIOL] is ___
0

// returns reported Hepatotoxicity (severe hepatitis) for input O=C(OCC(COC(=O)c1cccnc1)(COC(=O)c1cccnc1)COC(=O)c1cccnc1)c1cccnc1 [NICERITROL]
0

Data request, read-out Hepatotoxicity (severe hepatitis), for Cc1cc2c(C(C)C)c(O)c(O)c(C=O)c2c(O)c1-c1c(C)cc2c(C(C)C)c(O)c(O)c(C=O)c2c1O [GOSSYPOL]
0

Look up Hepatotoxicity (severe hepatitis): Cc1ccc(-c2nc3ccc(C)cn3c2CC(=O)N(C)C)cc1 [ZOLPIDEM]
0

Quick check: Hepatotoxicity (severe hepatitis) of CN(C)CCC=C1c2ccccc2CCc2ccccc21 [AMITRIPTYLINE] ?
6

// query Hepatotoxicity (severe hepatitis) value for entry [Li] [LITHIUM]
0

Entry N=C(N)NC(=O)c1nc(Cl)c(N)nc1N [AMILORIDE] has what Hepatotoxicity (severe hepatitis)?
0

So what does the record say about Hepatotoxicity (severe hepatitis) for CN(C)C(=O)CCCOC(=O)C(C)(C)Oc1ccc(Cl)cc1 [CLOFIBRIDE] ?
0

Record request: Hepatotoxicity (severe hepatitis) value, item CN(Cc1cnc2nc(N)nc(N)c2n1)c1ccc(C(=O)N[C@@H](CCC(=O)O)C(=O)O)cc1 [METHOTREXATE]
5

---

Conditions: human, serum
MEASURED METRIC: Hepatotoxicity (moderate)
Answer as a number with no unit attached.

As a guide, the following entries are already answered.
So what's the measured Hepatotoxicity (moderate) for this one? COc1ccnc(C[S+]([O-])c2nc3ccc(OC(F)F)cc3[nH]2)c1OC (stereo not drawn) [PANTOPRAZOLE]
13

Query (compound): Nc1ncn([C@@H]2O[C@H](CO)[C@@H](O)[C@@H]2O)c(=O)n1 [FAZARABINE] ; field requested: Hepatotoxicity (moderate)
1

Value lookup for Hepatotoxicity (moderate); key = COc1cc2nc(N(C)CCCNC(=O)C3CCCO3)nc(N)c2cc1OC (stereo not drawn) [ALFUZOSIN]
0

For the compound CCCNCC(O)COc1ccccc1C(=O)CCc1ccccc1 (stereo not drawn) [PROPAFENONE] , what Hepatotoxicity (moderate) is on record?
7

Value lookup for Hepatotoxicity (moderate); key = O=C(O)COc1nn(Cc2ccccc2)c2ccccc12 [BENDAZAC]
0

Endpoint output: Hepatotoxicity (moderate) of CCCN(CCC)S(=O)(=O)c1ccc(C(=O)O)cc1 [PROBENECID] . Value?
0

Requested read-out: Hepatotoxicity (moderate). Entry: CC(C)n1c(/C=C/C(O)CC(O)CC(=O)O)c(-c2ccc(F)cc2)c2ccccc21 (stereo not drawn) [FLUVASTATIN]
36

Need Hepatotoxicity (moderate) of CC(=O)OCC1=C(C(=O)O)N2C(=O)[C@@H](NC(=O)CSc3ccncc3)[C@H]2SC1 [CEPHAPIRIN] , thanks.
0

For CNCCON=c1c2ccccc2ccc2ccccc12 [DEMEXIPTILINE] , what is its reported Hepatotoxicity (moderate)?
0

Which Hepatotoxicity (moderate) is listed for Clc1cccc(C(c2ccc3[nH]cnc3c2)n2ccnc2)c1 (stereo not drawn) [LIAROZOLE] ?
1

More entries:
Quick one: Hepatotoxicity (moderate) for CC[C@]1(O)C[C@@H]2CN(CCc3c([nH]c4ccccc34)[C@@](C(=O)OC)(c3cc4c(cc3OC)N(C)[C@H]3[C@@](O)(C(N)=O)[C@H](O)[C@]5(CC)C=CCN6CC[C@]43[C@@H]65)C2)C1 [VINDESINE] ?
2

Data request, read-out Hepatotoxicity (moderate), for O=c1cc(Cc2ccccc2)[nH]c(=S)[nH]1 [BENZYLTHIOURACIL]
1

Suppose we examine the compound O=C1NC(=O)C(c2ccccc2)(c2ccccc2)N1 [PHENYTOIN] ; what Hepatotoxicity (moderate) value has been reported?
29

Can you look up the measured Hepatotoxicity (moderate) of CO[C@H]1/C=C/O[C@@]2(C)Oc3c(C)c(O)c4c(O)c(c(/C=N/N5CCN(C)CC5)c(O)c4c3C2=O)NC(=O)/C(C)=C\C=C\[C@H](C)[C@H](O)[C@@H](C)[C@@H](O)[C@@H](C)[C@H](OC(C)=O)[C@@H]1C [RIFAMPIN] for me?
22

---

Experiment: Highest frequency of moderate liver toxicity observed during clinical trials, expressed as a percentage. [column '% BIOL' in source]
Conditions: human
Where a SMILES comes first, the peptide text is derived from it. Bridges are numbered along the chain shown (N, C = ends). [ ]: non-standard residue; d: D form.
MEASURED METRIC: Hepatotoxicity (moderate)

Some compounds with known Hepatotoxicity (moderate) results, for comparison:
Data request, read-out Hepatotoxicity (moderate), for COc1cc(C(=O)NS(=O)(=O)c2ccccc2C)ccc1Cc1cn(C)c2ccc(NC(=O)OC3CCCC3)cc12 [ZAFIRLUKAST]
4.1%

May I ask what Hepatotoxicity (moderate) has been recorded for [H]/N=C(\N/C(=N/[H])Nc1ccc(Cl)cc1)NC(C)C [PROGUANIL] ?
16%

# input compound: CC(C)[C@@H]1NC(=O)[C@H](CCCCN)NC(=O)[C@@H](Cc2c[nH]c3ccccc23)NC(=O)[C@H](Cc2ccc(O)cc2)NC(=O)[C@@H](NC(=O)[C@H](N)Cc2ccccc2)CSSC[C@@H](C(=O)N[C@@H](Cc2c[nH]c3ccccc23)C(N)=O)NC1=O [VAPREOTIDE] (H-[dF]CY[dW]KVCW-NH2; disulfide 2-7) ; wanted: its Hepatotoxicity (moderate)
4.8%

# query: Hepatotoxicity (moderate) of entry O=C(O)Cc1nn(Cc2nc3cc(C(F)(F)F)ccc3s2)c(=O)c2ccccc12 [ZOPOLRESTAT]
11.6%

Others:
Can you look up the measured Hepatotoxicity (moderate) of CCCN1CCO[C@@H]2c3cc(O)ccc3CC[C@H]21 [NAXAGOLIDE] for me?
11.1%

Sample CCC(Cc1cnc2nc(N)nc(N)c2n1)c1ccc(C(=O)N[C@@H](CCC(=O)O)C(=O)O)cc1 (stereo partly specified) [EDATREXATE] — what was its Hepatotoxicity (moderate)?
30%
